# TEST: activators of adaptive XBP1 UPR arm, primary screen, cell-based, CHO-XBP1 luciferase reporter, luminescence, uHTS (AID 463104);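 further: 100% = tunicamycin at 10 µg/mL and 0% = DMSO only wells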
# RUN PARAMETERS: IRE1-XBP1 UPR activation, at 20 µM, percent of tunicamycin response, DMSO as zero
The campaign covered roughly 330,000 compounds. About 1,100 (0.33%) were called active.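 How the source made its calls: active means versus positive control, 20 µM dose yields 30% or more activation; inactive means the rest.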 Only a selection was taken, and actives are over-represented in it overall.
Select the matching outcome among class 1 for active, class 0 for inactive

Could you please tell me the result logged for CCCCN(CC)C(=S)Nc1ccc2nc3n(c(=O)c2c1)CCCCC3 in this assay?
class 0

Could you please tell me the result logged for Cc1cc(NC(=O)Nc2c[nH]c(=O)[nH]c2=O)ccc1Br in this assay?
class 0

Could you please tell me the result logged for CN(C)CCCN(C(=O)c1ccc(S(=O)(=O)N2CCCc3ccccc32)cc1)c1nc2ccc(F)cc2s1 in this assay?
class 0

Could you please tell me the result logged for CCCc1nc2ccccc2c(=O)n1/N=C/c1ccc(O)c(O)c1 in this assay?
class 1

Could you please tell me the result logged for CCN(CC(=O)NCC(=O)Nc1cccc(C)c1C)Cc1ccccc1 in this assay?
class 0

Could you please tell me the result logged for Nc1c(NCCc2ccccc2)c2ccccc2oc1=O in this assay?
class 0

Could you please tell me the result logged for Cc1ccc(SC(CC(=O)c2ccc(C(C)(C)C)cc2)C(=O)O)cc1 (configuration not stated) in this assay?
class 0

* * *

# TEST: activators of adaptive XBP1 UPR arm, primary screen, cell-based, CHO-XBP1 luciferase reporter, luminescence, uHTS (AID 463104);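 further: 100% = tunicamycin at 10 µg/mL and 0% = DMSO only wells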
# RUN PARAMETERS: IRE1-XBP1 UPR activation, at 20 µM, active compounds read high, percent of tunicamycin response, DMSO as zero
The campaign covered roughly 330,000 compounds. About 1,100 (0.33%) were called active. This is one part of a sample in which actives are shown more often than they occur.
PROPERTY: activation (%)
Use % as the unit, but write only the number.

Endpoint output: activation of C=CCNc1nc(N)c([N+](=O)[O-])c(NC2CCCCC2)n1 . Value?
32

Endpoint output: activation of CC(=O)Nc1ccc(CC#N)cc1 . Value?
-1.91

Endpoint output: activation of COCCNC(=S)c1ccc(OC)cc1 . Value?
-1.99

Endpoint output: activation of C=CCNC(=O)c1ccccc1NC(=O)c1ccc(Cl)c(S(=O)(=O)Nc2cccc(C)c2C)c1 . Value?
0.62

Endpoint output: activation of CCN1N=C(c2ccccc2)CCC1=O . Value?
0.24

Endpoint output: activation of COc1ccccc1N=Cc1c(O)c2ccccc2oc1=O . Value?
120

Endpoint output: activation of COCCN1C(=O)N[C@@H](CCc2ccccc2)[C@H](C(C)=O)[C@H]1C . Value?
0.9

Endpoint output: activation of CNc1nc(Nc2ccc(C)c(Cl)c2)nc(N)c1[N+](=O)[O-] . Value?
10.8

Endpoint output: activation of O=S(=O)(c1ccc(-c2ccno2)s1)N1CCCCC1 . Value?
-1.02

Endpoint output: activation of Nc1nc(NCC2CCCO2)nc(Nc2ccccc2F)c1[N+](=O)[O-] (centres undefined) . Value?
1.61

Endpoint output: activation of COc1ccccc1N=C(C)C1=C(O)COC1=O . Value?
0.65

Endpoint output: activation of CSc1nc2c(c(=O)[nH]1)C(c1cccc(Cl)c1Cl)CC(=O)N2 (centres undefined) . Value?
-1.96

Endpoint output: activation of COc1cc(NC(=O)CSc2nnc3ccc(-c4ccncc4)nn23)cc(OC)c1 . Value?
4.51

Endpoint output: activation of O=C(NCc1ccccc1Cl)NC(=O)c1csc([N+](=O)[O-])c1 . Value?
-1.89

Endpoint output: activation of CCN1C(=NCCc2cccnc2)N[C@@H](c2ccccc2)[C@H](C(=O)OC)[C@H]1C . Value?
0.09

Endpoint output: activation of CCOC(=O)N1CCN(CC(=O)n2c(C)c(C)c3ccccc32)CC1 . Value?
1.59

Endpoint output: activation of Cc1ccc(NC(=O)c2cccs2)cc1S(=O)(=O)N(C)C . Value?
1.24

Endpoint output: activation of CCOC(=O)/C=C/c1ccc(C(F)(F)F)cc1S(=O)(=O)NC(C)(C)C . Value?
3.87

Endpoint output: activation of Cc1cc(N2CCOCC2)nc2ccc(NC(=S)N3CCN(Cc4ccccc4)CC3)cc12 . Value?
-2.17

Endpoint output: activation of Cc1cc(NC(=O)COc2ccccc2C#N)no1 . Value?
6.89

Endpoint output: activation of Cc1ccc(S(=O)(=O)/N=C(/Nc2ccccn2)c2ccc(Cl)cc2)cc1 . Value?
1.88

Endpoint output: activation of O=C(Nc1nnc(-c2ccccc2F)s1)c1ccccc1F . Value?
4.27

Endpoint output: activation of Cc1cccc(C)c1NC(=O)C1(N(C(=O)c2ccccn2)c2ccc(O)cc2)CCCCC1 . Value?
-2.28

Endpoint output: activation of COc1cccc(NC(=O)C(Sc2nnnn2C)c2ccccc2)c1 (centres undefined) . Value?
-3.49

The values you see were collected from PubChem BioAssay AID463104.
